Biological target: NAD kinase (Mycobacterium tuberculosis, UniProt P9WHV7)
Experiment: Inhibition of Mycobacterium tuberculosis NAD kinase by modified HPLC based assay
Conditions: read-out: IC50
readout.label: pIC50
# reply with the number alone; pIC50 is -log10 of concentration in mol/L

Please review the entries below; each comes with its answer.
chemical.string	target.under.test	pIC50
Nc1ncnc2c1ncn2[C@@H]1O[C@H](CSSC[C@H]2O[C@@H](n3cnc4c(N)ncnc43)[C@H](O)[C@@H]2O)[C@@H](O)[C@H]1O	NAD kinase (Mycobacterium tuberculosis, UniProt P9WHV7)	4.35
NC(=O)c1csc([C@@H]2O[C@H](CSSC[C@H]3O[C@@H](n4cnc5c(N)ncnc54)[C@H](O)[C@@H]3O)[C@@H](O)[C@H]2O)n1	NAD kinase (Mycobacterium tuberculosis, UniProt P9WHV7)	4.10

Per the record, `C[C@@]1(O)[C@H](O)[C@@H](CSSC[C@H]2O[C@@H](n3cnc4c(N)ncnc43)[C@](C)(O)[C@@H]2O)O[C@H]1n1cnc2c(N)ncnc21` has pIC50 of 3.30

---

Test: Inhibition of horse liver alcohol dehydrogenase
Parameters: species or system Equus caballus
readout.label: pKi
# reply with the number alone; pKi is -log10 of concentration in mol/L

Per the record, NC(=O)c1csc([C@@H]2O[C@H](COP(=O)(O)OP(=O)(O)OC[C@H]3O[C@@H](n4cnc5c(N)ncnc54)[C@H](O)[C@@H]3O)[C@@H](O)[C@H]2O)n1 [TIAZOFURIN ADENINE DINUCLEOTIDE] has pKi of 9.00

---

Target: NAD kinase (Mycobacterium tuberculosis, UniProt P9WHV7)
Sequence (P9WHV7 whole entry): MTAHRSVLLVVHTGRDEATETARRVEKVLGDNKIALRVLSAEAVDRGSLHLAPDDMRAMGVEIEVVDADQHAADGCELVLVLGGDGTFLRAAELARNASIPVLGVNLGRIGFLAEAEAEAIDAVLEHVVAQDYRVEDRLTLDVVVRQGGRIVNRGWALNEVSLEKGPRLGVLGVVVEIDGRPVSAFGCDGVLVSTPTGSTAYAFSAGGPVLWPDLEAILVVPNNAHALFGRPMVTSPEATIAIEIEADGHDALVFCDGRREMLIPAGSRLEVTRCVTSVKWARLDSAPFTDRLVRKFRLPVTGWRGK
Experiment: Inhibition of Mycobacterium tuberculosis NAD kinase by modified HPLC based assay
Conditions: read-out: IC50
readout.label: pIC50
# reply with the number alone; pIC50 is -log10 of concentration in mol/L

Please review the entries below; each comes with its answer.
compound	target.under.test	pIC50
NC(=O)c1cccc([C@@H]2O[C@H](COP(=O)(O)OP(=O)(O)OC[C@H]3O[C@@H](n4cnc5c(N)ncnc54)[C@H](O)[C@@H]3O)[C@@H](O)[C@H]2O)c1 [BENZAMIDEADENINEDINUCLEOSIDE]	NAD kinase (Mycobacterium tuberculosis, UniProt P9WHV7)	3.70
Nc1ncnc2c1nc(Br)n2[C@@H]1O[C@H](CSSC[C@H]2O[C@@H](n3c(Br)nc4c(N)ncnc43)[C@H](O)[C@@H]2O)[C@@H](O)[C@H]1O	NAD kinase (Mycobacterium tuberculosis, UniProt P9WHV7)	4.72

Next up:
Per the record, `Nc1ncnc2c1ncn2[C@@H]1O[C@H](CSSC[C@H]2O[C@@H](n3c(Br)nc4c(N)ncnc43)[C@H](O)[C@@H]2O)[C@@H](O)[C@H]1O` has pIC50 of 4.85

---

Target: NAD kinase (Homo sapiens, UniProt O95544)
Assay: Inhibition of human NAD kinase by modified HPLC based assay
Conditions: read-out: IC50
readout.label: IC50 (µM)
Just the number please, in µM, no unit attached.

Please review the entries below; each comes with its answer.
chemical.string	target.under.test	value.measured
NC(=O)c1csc([C@@H]2O[C@H](CSSC[C@H]3O[C@@H](n4cnc5c(N)ncnc54)[C@H](O)[C@@H]3O)[C@@H](O)[C@H]2O)n1	NAD kinase (Homo sapiens, UniProt O95544)	110
C[C@@]1(O)[C@H](O)[C@@H](CSSC[C@H]2O[C@@H](n3cnc4c(N)ncnc43)[C@](C)(O)[C@@H]2O)O[C@H]1n1cnc2c(N)ncnc21	NAD kinase (Homo sapiens, UniProt O95544)	280

Per the record, `Nc1ncnc2c1nc(-c1ccccc1)n2[C@@H]1O[C@H](CSSC[C@H]2O[C@@H](n3c(-c4ccccc4)nc4c(N)ncnc43)[C@H](O)[C@@H]2O)[C@@H](O)[C@H]1O` has IC50 of 45

---

Assay: Inhibition of human IMPDH
readout.label: pKi
# reply with the number alone; pKi is -log10 of concentration in mol/L

Please review the entries below; each comes with its answer.
compound	pKi
CCc1nc(N)c2ncn([C@@H]3O[C@H](COP(=O)(O)OP(=O)(O)OC[C@H]4O[C@@H](c5nc(C(N)=O)cs5)[C@H](O)[C@@H]4O)[C@@H](O)[C@H]3O)c2n1	9.00
NC(=O)c1csc([C@@H]2O[C@H](COP(=O)(O)OP(=O)(O)OC[C@H]3O[C@@H](n4cnc5c(N)ncnc54)[C@H](O)[C@@H]3O)[C@@H](O)[C@H]2O)n1 [TIAZOFURIN ADENINE DINUCLEOTIDE]	7.00
C#Cc1nc(N)c2ncn([C@@H]3O[C@H](COP(=O)(O)OP(=O)(O)OC[C@H]4O[C@@H](c5nc(C(N)=O)cs5)[C@H](O)[C@@H]4O)[C@@H](O)[C@H]3O)c2n1	8.00

Per the record, `NC(=O)c1csc([C@@H]2O[C@H](COP(=O)(O)OP(=O)(O)OC[C@H]3O[C@@H](n4cnc5c(N)nc(I)nc54)[C@H](O)[C@@H]3O)[C@@H](O)[C@H]2O)n1` has pKi of 7.70

---

Biological target: NAD kinase (Homo sapiens, UniProt O95544)
Sequence (O95544 whole entry): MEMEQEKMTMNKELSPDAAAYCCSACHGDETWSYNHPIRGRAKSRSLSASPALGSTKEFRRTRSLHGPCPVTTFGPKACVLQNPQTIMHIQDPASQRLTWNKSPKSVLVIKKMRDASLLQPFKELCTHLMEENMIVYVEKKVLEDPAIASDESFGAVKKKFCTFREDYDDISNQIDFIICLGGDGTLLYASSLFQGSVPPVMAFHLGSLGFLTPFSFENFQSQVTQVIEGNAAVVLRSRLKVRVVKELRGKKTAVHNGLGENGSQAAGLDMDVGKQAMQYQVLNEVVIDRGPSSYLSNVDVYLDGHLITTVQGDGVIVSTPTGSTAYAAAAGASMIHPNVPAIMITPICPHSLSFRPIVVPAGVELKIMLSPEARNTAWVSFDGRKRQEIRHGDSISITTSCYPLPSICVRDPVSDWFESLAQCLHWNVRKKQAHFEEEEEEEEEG
Experiment: Inhibition of human NAD kinase by modified HPLC based assay
Conditions: read-out: IC50
readout.label: IC50 (µM)
Just the number please, in µM, no unit attached.

Please review the entries below; each comes with its answer.
chemical.string	unit.name	value.measured
Nc1ncnc2c1ncn2[C@@H]1O[C@H](CSSC[C@H]2O[C@@H](n3cnc4c(N)ncnc43)[C@H](O)[C@@H]2O)[C@@H](O)[C@H]1O	µM	87
Nc1ncnc2c1nc(Br)n2[C@@H]1O[C@H](CSSC[C@H]2O[C@@H](n3c(Br)nc4c(N)ncnc43)[C@H](O)[C@@H]2O)[C@@H](O)[C@H]1O	µM	6

Next up:
Per the record, `Nc1ncnc2c1ncn2[C@@H]1O[C@H](CSSC[C@H]2O[C@@H](n3c(Br)nc4c(N)ncnc43)[C@H](O)[C@@H]2O)[C@@H](O)[C@H]1O` has IC50 of 6

---

Experiment: Binding affinity to penicillopepsin
readout.label: Ki
Could you write the number and then its unit?

chemical.string	value.measured
COC(=O)[C@H](Cc1ccccc1)OP(=O)(O)[C@H](CC(C)C)NC(=O)[C@H](CC(N)=O)NC(=O)[C@@H](NC(=O)CC(C)C)C(C)C	0.042 µM

Next up:
Per the record, `COC(=O)[C@@H]1Cc2cccc(c2)CNC(=O)C[C@H](NC(=O)[C@@H](NC(=O)CC(C)C)C(C)C)C(=O)N[C@@H](CC(C)C)P(=O)(O)O1` has Ki of 0.0001 µM

---

Biological target: Inosine-5'-monophosphate dehydrogenase 1 (Homo sapiens) (UniProt P20839)
Sequence (P20839 2-514 limits assumed): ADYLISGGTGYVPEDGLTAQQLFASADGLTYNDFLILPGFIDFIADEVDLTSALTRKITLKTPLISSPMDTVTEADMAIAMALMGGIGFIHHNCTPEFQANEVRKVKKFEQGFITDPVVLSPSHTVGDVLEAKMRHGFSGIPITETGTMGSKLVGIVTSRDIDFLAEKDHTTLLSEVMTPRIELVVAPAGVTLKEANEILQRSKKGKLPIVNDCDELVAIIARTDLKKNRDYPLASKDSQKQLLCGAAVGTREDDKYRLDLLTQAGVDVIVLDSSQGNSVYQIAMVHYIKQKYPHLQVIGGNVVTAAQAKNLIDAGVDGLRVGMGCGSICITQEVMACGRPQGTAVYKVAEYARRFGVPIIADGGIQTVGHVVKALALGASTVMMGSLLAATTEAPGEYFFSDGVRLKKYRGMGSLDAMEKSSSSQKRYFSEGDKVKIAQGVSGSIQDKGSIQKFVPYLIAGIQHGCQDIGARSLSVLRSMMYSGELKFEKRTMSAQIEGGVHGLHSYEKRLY
Assay: Inhibition of human IMPDH1 at 100 uM
Active and inactive are the calls of the source. The rule behind the calls is not given here.
readout.label: inhibition

Please review the entries below; each comes with its answer.
chemical.string	inhibition
C[C@@]1(O)[C@@H](CSSC[C@H]2O[C@@H](n3cnc4c(N)ncnc43)[C@H](O)[C@]2(C)O)O[C@@H](n2cnc3c(N)ncnc32)[C@@H]1O	inactive
C[C@@]1(O)[C@H](O)[C@@H](CSSC[C@H]2O[C@@H](n3cnc4c(N)ncnc43)[C@](C)(O)[C@@H]2O)O[C@H]1n1cnc2c(N)ncnc21	inactive
Nc1ncnc2c1ncn2[C@@H]1O[C@H](CSSC[C@H]2O[C@@H](n3c(Br)nc4c(N)ncnc43)[C@H](O)[C@@H]2O)[C@@H](O)[C@H]1O	inactive
Nc1ncnc2c1nc(-c1ccccc1)n2[C@@H]1O[C@H](CSSC[C@H]2O[C@@H](n3c(-c4ccccc4)nc4c(N)ncnc43)[C@H](O)[C@@H]2O)[C@@H](O)[C@H]1O	inactive

Next up:
Query `NC(=O)c1csc([C@@H]2O[C@H](CSSC[C@H]3O[C@@H](n4cnc5c(N)ncnc54)[C@H](O)[C@@H]3O)[C@@H](O)[C@H]2O)n1` on Inosine-5'-monophosphate dehydrogenase 1 (Homo sapiens) (UniProt P20839); inhibition returned: inactive
